- System: Haemophilus parainfluenzae
- assay-name: growth AUC normalised to DMSO control (fraction of control); higher = less growth inhibition, active = hit call of the paper
- condition-context: 20 µM
Counter-ions that a name gives are not always drawn.
readout-type: growth AUC normalised to DMSO control
Just the number, please, no unit attached.

# growth AUC normalised to DMSO control of Clc1ccccc1CN1CCc2sccc2C1 [Ticlopidine hydrochloride] = 0.972

growth AUC normalised to DMSO control measured on NNc1nncc2ccccc12 [Hydralazine hydrochloride] = 1.03

In plain terms, CCCC(=O)Nc1ncnc2c1ncn2[C@@H]1O[C@@H]2COP(=O)(O)O[C@H]2[C@H]1OC(=O)CCC [Bucladesine sodium salt] has a documented growth AUC normalised to DMSO control of 1

Query CCC(=O)O[C@]1(C(=O)SCF)[C@H](C)C[C@H]2[C@@H]3C[C@H](F)C4=CC(=O)C=C[C@]4(C)[C@@]3(F)[C@@H](O)C[C@@]21C [Fluticasone propionate] yields growth AUC normalised to DMSO control of 0.997
